- Tested on: α-chymotrypsin
- Assay Method Text: Protease stability experiment (α-chymotrypsin-mediated degradation)
- Assay type: in vitro ADME
- Test Parameters: α-chymotrypsin 0.5 ng/μl in PBS pH 7.4 with 2 mM CaCl2; 50 μl peptide 1 mM in DMSO + 1,950 μl enzyme; 37°C; 0, 1, 2, 4, 8, 12 h; residual peptide by HPLC; read-out: t1/2 (h), hydrolysis enzyme degradation half-life (converted)
- Procedure: Protease Stability Experiment Fifty microliters peptides in dimethyl sulfoxide (DMSO) (1 mM) and 1,950 μl α-chymotrypsin in phosphate-buffered saline (PBS) (0.5 ng/μl, pH 7.4, containing 2 mM CaCl2) were mixed and incubated at 37°C. After 0, 1, 2, 4, 8, and 12 h, the percent residual peptide was monitored by HPLC.
Bridge positions count the residues as written; N and C are the ends. Square brackets hold non-standard residues; d marks the D form. Peptide text beside a SMILES is read from it. R8 = C=CCCCCCC[C@@](C)(N)C(=O)O; S5 = C=CCCC[C@](C)(N)C(=O)O
The following compounds are listed with their measured half-life at 25 µM values.
Express your answer in h, writing the number without its unit.

# annotated cases, reported half-life at 25 µM shown
Q) Request the reported half-life at 25 µM associated with CC[C@H](C)[C@@H]1NC(=O)[C@H](C(C)C)NC(=O)[C@H](C)NC(=O)[C@H](Cc2ccccc2)NC(=O)[C@](C)(NC(=O)CNC(C)=O)CCCCCCC=CCCC[C@@](C)(C(=O)N[C@@H](C)C(=O)N[C@@H](CO)C(=O)N[C@H](C(=O)N[C@H](C(=O)N[C@@H](CCCCN)C(=O)NCC(=O)N[C@@H](CC(C)C)C(N)=O)[C@@H](C)CC)C(C)C)NC(=O)[C@H](CCCCN)NC(=O)[C@H](CCCCN)NC1=O [A4K14-citropin1.1-6] (Ac-G[R8]FAVIKK[S5]ASVIKGL-NH2; staple 2-9)
A) 0.57

Q) Now the compound CC[C@H](C)[C@H](NC(=O)[C@@H](NC(=O)[C@H](CO)NC(=O)[C@H](C)NC(=O)[C@]1(C)CCCC=CCCC[C@](C)(NC(=O)[C@H](C)NC(=O)[C@H](Cc2ccccc2)NC(=O)[C@H](CC(C)C)NC(=O)CNC(C)=O)C(=O)N[C@@H]([C@@H](C)CC)C(=O)N[C@@H](CCCCN)C(=O)N[C@@H](CCCCN)C(=O)N1)C(C)C)C(=O)N[C@@H](CCCCN)C(=O)NCC(=O)N[C@@H](CC(C)C)C(N)=O [A4K14-citropin1.1-2] (Ac-GLFA[S5]IKK[S5]ASVIKGL-NH2; staple 5-9)
A) 1.72

Q) Now the compound CC[C@H](C)[C@H](NC(=O)[C@@H](NC(=O)[C@H](CO)NC(=O)[C@]1(C)CCCC=CCCC[C@](C)(NC(=O)[C@@H](NC(=O)[C@H](C)NC(=O)[C@H](Cc2ccccc2)NC(=O)[C@H](CC(C)C)NC(=O)CNC(C)=O)C(C)C)C(=O)N[C@@H](CCCCN)C(=O)N[C@@H](CCCCN)C(=O)N[C@@H](C(C)C)C(=O)N1)C(C)C)C(=O)N[C@@H](CCCCN)C(=O)NCC(=O)N[C@@H](CC(C)C)C(N)=O [A4K14-citropin1.1-3] (Ac-GLFAV[S5]KKV[S5]SVIKGL-NH2; staple 6-10)
A) 0.61

Note: attention shifts to another entry.
Q) Request the reported half-life at 25 µM associated with CC[C@H](C)[C@H](NC(=O)[C@@H](NC(=O)[C@H](C)NC(=O)[C@H](Cc1ccccc1)NC(=O)[C@H](CC(C)C)NC(=O)CNC(C)=O)C(C)C)C(=O)N[C@@H](CCCCN)C(=O)N[C@@H](CCCCN)C(=O)N[C@H](C(=O)N[C@@H](C)C(=O)N[C@@]1(C)CCCC=CCCC[C@@](C)(C(=O)N[C@@H](CC(C)C)C(N)=O)NC(=O)[C@H](CCCCN)NC(=O)[C@H]([C@@H](C)CC)NC(=O)[C@H](C(C)C)NC1=O)C(C)C [A4K14-citropin1.1-5] (Ac-GLFAVIKKVA[S5]VIK[S5]L-NH2; staple 11-15)
A) 1.83

----------
- System: α-chymotrypsin
- Assay Method Text: Protease stability experiment (α-chymotrypsin-mediated degradation)
- Type: in vitro ADME
- Test Parameters: α-chymotrypsin 0.5 ng/μl in PBS pH 7.4 with 2 mM CaCl2, 37°C, 12 h, HPLC; read-out: peptide remaining intact after 12 h of protease exposure
Bridge positions count the residues as written; N and C are the ends. Square brackets hold non-standard residues; d marks the D form. Peptide text beside a SMILES is read from it. S5 = C=CCCC[C@](C)(N)C(=O)O
Assay Endpoint: remaining at 12 h, 25 µM

Q) Request the reported remaining at 12 h, 25 µM associated with CC[C@H](C)[C@H](NC(=O)[C@@H](NC(=O)[C@H](C)NC(=O)[C@H](Cc1ccccc1)NC(=O)[C@H](CC(C)C)NC(=O)CNC(C)=O)C(C)C)C(=O)N[C@@H](CCCCN)C(=O)N[C@@H](CCCCN)C(=O)N[C@@]1(C)CCCC=CCCC[C@@](C)(C(=O)N[C@@H](CCCCN)C(=O)NCC(=O)N[C@@H](CC(C)C)C(N)=O)NC(=O)[C@H](C(C)C)NC(=O)[C@H](CO)NC(=O)[C@H](C)NC1=O [A4K14-citropin1.1-4] (Ac-GLFAVIKK[S5]ASV[S5]KGL-NH2; staple 9-13)
A) > 85%

Note: attention shifts to another entry.
Q) Request the reported remaining at 12 h, 25 µM associated with CC[C@H](C)[C@H](NC(=O)[C@@H](NC(=O)[C@H](CO)NC(=O)[C@H](C)NC(=O)[C@@H](NC(=O)[C@H](CCCCN)NC(=O)[C@H](CCCCN)NC(=O)[C@]1(C)CCCC=CCCC[C@](C)(NC(=O)CNC(C)=O)C(=O)N[C@@H](Cc2ccccc2)C(=O)N[C@@H](C)C(=O)N[C@@H](C(C)C)C(=O)N1)C(C)C)C(C)C)C(=O)N[C@@H](CCCCN)C(=O)NCC(=O)N[C@@H](CC(C)C)C(N)=O [A4K14-citropin1.1-1] (Ac-G[S5]FAV[S5]KKVASVIKGL-NH2; staple 2-6)
A) > 85%

----------
- Tested on: glioma cell line U87
- Type: cell-based
- Test Parameters: CCK-8, 96 h treatment, 0.39-50 μM, OD 450 nm; read-out: IC50 (μM) U87
- Procedure: Cell Culture and Cell Viability Assay The human prostate cancer cell line C4-2B was kindly provided and authenticated by Dr. Leland Chung (Cedars-Sinai Medical Center, Los Angeles, CA, USA). […] The optical density (OD) was then measured at a wavelength of 450 nm on a Cell Imaging Multi-Mode Reader (BioTek, Vermont, USA), and the average OD values for each sample were analyzed using Image-J software (NIH, Bethesda, MD, USA). […]
Bridge positions count the residues as written; N and C are the ends. Square brackets hold non-standard residues; d marks the D form. Peptide text beside a SMILES is read from it. S5 = C=CCCC[C@](C)(N)C(=O)O
Assay Endpoint: IC50
Please answer using the number first and the unit second.

Q) Request the reported IC50 associated with CC[C@H](C)[C@H](NC(=O)[C@@H](NC(=O)[C@H](CO)NC(=O)[C@H](C)NC(=O)[C@@H](NC(=O)[C@H](CCCCN)NC(=O)[C@H](CCCCN)NC(=O)[C@]1(C)CCCC=CCCC[C@](C)(NC(=O)CNC(C)=O)C(=O)N[C@@H](Cc2ccccc2)C(=O)N[C@@H](C)C(=O)N[C@@H](C(C)C)C(=O)N1)C(C)C)C(C)C)C(=O)N[C@@H](CCCCN)C(=O)NCC(=O)N[C@@H](CC(C)C)C(N)=O [A4K14-citropin1.1-1] (Ac-G[S5]FAV[S5]KKVASVIKGL-NH2; staple 2-6)
A) 11.9 µM

----------
- Tested on: α-chymotrypsin
- Assay Method Text: Protease stability experiment (α-chymotrypsin-mediated degradation)
- Type: in vitro ADME
- Test Parameters: α-chymotrypsin 0.5 ng/μl in PBS pH 7.4 with 2 mM CaCl2; 50 μl peptide 1 mM in DMSO + 1,950 μl enzyme; 37°C; 0, 1, 2, 4, 8, 12 h; residual peptide by HPLC; read-out: t1/2 (h), hydrolysis enzyme degradation half-life (converted)
Bridge positions count the residues as written; N and C are the ends. Square brackets hold non-standard residues; d marks the D form. Peptide text beside a SMILES is read from it. R8 = C=CCCCCCC[C@@](C)(N)C(=O)O; S5 = C=CCCC[C@](C)(N)C(=O)O
Assay Endpoint: half-life at 25 µM (h)
Express your answer in h, writing the number without its unit.

Q) Request the reported half-life at 25 µM associated with CC(=O)NCC(=O)N[C@@H](CC(C)C)C(=O)N[C@@H](Cc1ccccc1)C(=O)N[C@@H](C)C(=O)N[C@H](C(=O)N[C@]1(C)CCCCCCC=CCCC[C@@](C)(C(=O)N[C@@H](CCCCN)C(=O)NCC(=O)N[C@@H](CC(C)C)C(N)=O)NC(=O)[C@H](C(C)C)NC(=O)[C@H](CO)NC(=O)[C@H](C)NC(=O)[C@H](C(C)C)NC(=O)[C@H](CCCCN)NC(=O)[C@H](CCCCN)NC1=O)C(C)C [A4K14-citropin1.1-7] (Ac-GLFAV[R8]KKVASV[S5]KGL-NH2; staple 6-13)
A) 0.58

Origin of measurements: paper PMC7758422
